The reader will find reported pEC50 values listed item by item below.
tested on: p21 induction in HCT116 cells; assay: p21 induction in HCT116 cells; format: cell-based; conditions: Homo sapiens, HCT-116, 24 h, HCT116 cells, 24 h compound incubation; read-out: P21_EC50
pEC50: −log10 of the molar value.

// solved cases for pEC50 follow
CCc1c(N2CCN(C(=O)c3c(C#N)cnc(C)c3O)CC2)c(=O)c2ncc(C)nc2n1CC(=O)Nc1ccc(C(F)(F)F)cc1Cl
< 5.30
CCc1c(N2CCN(C(=O)c3c(C#N)cnc(C)c3O)CC2)c(=O)c2nc(C)cnc2n1CC(=O)Nc1ccc(C(F)(F)F)cc1Cl
< 5.30
CC#Cc1cnc2c(n1)c(=O)c(N1CCN(C(=O)c3ncnc(C)c3O)CC1)c(CC)n2CC(=O)Nc1ccc(C(F)(F)F)cc1Cl
5.30 to 5.70
CCc1c(N2CCN(C(=O)c3ncnc(C)c3O)C[C@@H]2CO)c(=O)c2nc(N(C)C)cnc2n1CC(=O)Nc1ccc(C(F)(F)F)cc1Cl
< 5.30
CCc1c(N2CCN(C(=O)c3ncnc(C)c3O)[C@H]3CC[C@@H]32)c(=O)c2nc(N(C)C)cnc2n1CC(=O)Nc1ccc(OC)cc1Cl
5.70 to 6.30

Turning to the following molecule.
May I ask what pEC50 has been recorded for CCc1c(N2CCN(C(=O)c3ncnc(C)c3O)CC2(C)C)c(=O)c2nc(N(C)C)cnc2n1CC(=O)Nc1ccc(C(F)(F)F)cc1Cl ?
> 6.30
